Molecular target: NRP1-b1b2 (b1b2 domain of neuropilin-1) (Homo sapiens)
Construct: b1b2 domains (273-586) of neuropilin-1
Sequence (O14786 273-586): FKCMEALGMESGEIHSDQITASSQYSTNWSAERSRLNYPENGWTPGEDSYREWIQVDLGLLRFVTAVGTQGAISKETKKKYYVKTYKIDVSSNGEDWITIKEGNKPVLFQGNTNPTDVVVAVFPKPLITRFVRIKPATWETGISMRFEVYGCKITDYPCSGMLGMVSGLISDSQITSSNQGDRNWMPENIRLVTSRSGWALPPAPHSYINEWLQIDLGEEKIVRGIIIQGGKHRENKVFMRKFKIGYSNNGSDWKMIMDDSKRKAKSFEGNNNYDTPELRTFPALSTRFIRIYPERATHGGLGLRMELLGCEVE
Test: SPR (Biacore2000) binding to b1b2 domain of neuropilin-1
Conditions: NRP1-b1b2, SPR
Procedure: Specifically, each b1b2 domain of neuropilin-1 and -2 was diluted with 10 mM Na-acetate buffer (pH 4.0), and fixed onto CMS sensor chips (GE healthcare, USA) in about 1000 response units (RU). […] After bond and dissociation analysis, the regeneration of CMS chip was performed by streaming a buffer (20 Mm NaOH, 1 M NaCl, pH 10.0) at a stream velocity 30 μl/min for 1 minute.
Readout name: Association rate ka

// known answers, use as guide
- Fc-15F22p: Human IgG1 Fc with TPP 15F22p (SEQ ID NO: 10) fused to its C-terminus (GGGGSGGGGSGGGGSREAPGAPRSPEPQDQKKPRPRR): 1.73 ± 0.26 × 10^4 M^−1s^−1
- Fc-4A22: Human IgG1 Fc with TPP 4A22 (SEQ ID NO: 5) fused to its C-terminus (GAGAHTPGNSNKWKHLQENKKGRNRR): 1.02 ± 0.14 × 10^3 M^−1s^−1
- Fc-15F22: Human IgG1 Fc with (GGGGS)3-F22 (SEQ ID NO: 9) fused to its C-terminus (GGGGSGGGGSGGGGSREAPGAPRSPEPQDQKKPRNRR): 1.35 ± 0.24 × 10^3 M^−1s^−1
- Fc-15A22: Human IgG1 Fc with TPP 15A22 (SEQ ID NO: 6) fused to its C-terminus (GGGGSGGGGSGGGGSHTPGNSNKWKHLQENKKGRNRR): 4.86 ± 0.98 × 10^3 M^−1s^−1

### Prompt Find the measured Association rate ka of Fc-4F22: Human IgG1 Fc with TPP 4F22 (SEQ ID NO: 8) fused to its C-terminus (GAGAREAPGAPRSPEPQDQKKPRNRR) with NRP1-b1b2 (b1b2 domain of neuropilin-1) (Homo sapiens) as test system.
### Response 2.18 ± 0.12 × 10^2 M^−1s^−1

====

Molecular target: NRP2-b1b2 (b1b2 domain of neuropilin-2) (Homo sapiens)
Construct: b1b2 domains (275-595) of neuropilin-2
Sequence (O60462 275-595): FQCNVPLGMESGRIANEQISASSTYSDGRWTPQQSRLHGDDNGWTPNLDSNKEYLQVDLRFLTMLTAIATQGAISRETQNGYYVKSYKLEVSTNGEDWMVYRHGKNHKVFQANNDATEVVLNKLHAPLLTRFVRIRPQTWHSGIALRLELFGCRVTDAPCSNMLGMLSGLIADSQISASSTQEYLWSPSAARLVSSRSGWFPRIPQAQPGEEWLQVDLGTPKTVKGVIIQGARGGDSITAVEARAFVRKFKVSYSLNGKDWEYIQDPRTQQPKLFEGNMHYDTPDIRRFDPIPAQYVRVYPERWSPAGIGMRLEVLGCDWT
Assay: SPR (Biacore2000) binding to b1b2 domain of neuropilin-2
Recorded measurements of Dissociation rate kd, one per entry

• Fc-15F22: Human IgG1 Fc with (GGGGS)3-F22 (SEQ ID NO: 9) fused to its C-terminus (GGGGSGGGGSGGGGSREAPGAPRSPEPQDQKKPRNRR) = 1.30 ± 0.21 × 10^−2 s^−1
• Fc-15A22: Human IgG1 Fc with TPP 15A22 (SEQ ID NO: 6) fused to its C-terminus (GGGGSGGGGSGGGGSHTPGNSNKWKHLQENKKGRNRR) = 3.87 ± 0.09 × 10^−2 s^−1
• Fc-15F22p: Human IgG1 Fc with TPP 15F22p (SEQ ID NO: 10) fused to its C-terminus (GGGGSGGGGSGGGGSREAPGAPRSPEPQDQKKPRPRR) = 1.23 ± 0.16 × 10^−3 s^−1

### Prompt For Fc-4F22: Human IgG1 Fc with TPP 4F22 (SEQ ID NO: 8) fused to its C-terminus (GAGAREAPGAPRSPEPQDQKKPRNRR) , write its Dissociation rate kd.
### Response 1.57 ± 0.40 × 10^−3 s^−1

### Prompt For Fc-4A22: Human IgG1 Fc with TPP 4A22 (SEQ ID NO: 5) fused to its C-terminus (GAGAHTPGNSNKWKHLQENKKGRNRR) , write its Dissociation rate kd.
### Response 1.23 ± 0.16 × 10^−1 s^−1
